test: Plasma concentration by LC-MS/MS in mice bearing HCC827-ER1 tumors (PK/PD study); details: female, athymic nude, mouse, in vivo, 5 mg/kg, osimertinib plasma concentration, 2 hr post osimertinib (8 hr post (10b)); osimertinib 5 mg/kg PO; mean ± SD
reportedProperty: concentration at 2 h

Give its concentration at 2 h value. Item: C=CC(=O)Nc1cc(Nc2nccc(-c3cn(C)c4ccccc34)n2)c(OC)cc1N(C)CCN(C)C
~700 nM

====

test: Plasma concentration by LC-MS/MS in mice bearing HCC827-ER1 tumors (PK/PD study); conditions: 6 hours and 8 hours after dosing, 100 mg/kg; monotherapy and in combination with osimertinib
reportedProperty: Formula (10b) Plasma concentration

Give its Formula (10b) Plasma concentration value. Item: Cc1c(N2CCC3(CC2)CO[C@@H](C)[C@H]3N)nc(C)n(-c2cccc(Cl)c2Cl)c1=O (atropisomer, axis not shown; (Ra)) [Formula (10b)]
30 to 50 µM

# credit: patent US20250195520A1
